Experiment: Quantitative highthroughput screen to assess conditional lethalithy of SEM cells grown in Human Plasma-Like Medium with dialyzed fetal bovine serum (HPLM+ds) (AID 1963882); further: nearly all actives have a fitted effect of over 35% in size; further: potency means the concentration at half of the fitted maximal effect
Conditions: SEM B-ALL cells in HPLM+ds, CellTiter-Glo viability, 48 h; series mostly up to 45.8 µM
Records with an inconclusive call do not appear. Active and inactive are the calls of the source. The call rests on the fitted dose curve; in most records, active means well fitted cell-killing curve with a large enough effect; inconclusive means small, poorly fitted or top-dose-only effect, or effect the other way; inactive means no such curve, though single readings can be large or run the other way.
endpointLabel: Potency

Cc1cc(=O)oc2cc(O)ccc12    inactive
NC1CCC(Nc2nc(Nc3ccc(C(=O)N4CCCCC4)cc3)c3ncn(-c4cccc(F)c4)c3n2)CC1 (centres undefined)    inactive
O=C1NC(O)CCN1[C@@H]1O[C@H](CO)[C@H](O)[C@H]1O (some centres undefined)    inactive
O=c1c(O)c(-c2ccc(O)cc2)oc2cc(O)cc(O)c12    inactive
O=C(O)C=Cc1ccc(Cn2ccnc2)cc1    inactive

QUERY: Supply recorded Potency for CCS(=O)(=O)Nc1ccc2[nH]c(O)c(C(=Nc3ccc(CN4CCCCC4)cc3)c3ccccc3)c2c1 here.
RESULT: 0.0743 µM (active)

QUERY: Supply recorded Potency for C1=CCOCc2cc(ccc2OCCN2CCCC2)Nc2nccc(n2)-c2cccc(c2)OCC1 here.
RESULT: 3.32 µM (active)

QUERY: Supply recorded Potency for Oc1c(Cl)cc(Cl)c2cccnc12 here.
RESULT: 16.6 µM (active)

* * *

Answer each item with its documented Potency.
Test: Cellular viability qHTS for adrenocortical cancer (ACC) cell line SW-13 (AID 1963989); further: potency means the concentration at half of the fitted maximal effect; nearly all actives have a fitted effect of over 65% in size
Settings: SW-13 ACC cells viability, CellTiter-Glo, 48 h
Records with an inconclusive call do not appear. Activity calls are given as the source filed them. Calls come from the whole dose curve; as a rule, active = well fitted cell-killing curve with a large enough effect; inconclusive = small, poorly fitted or top-dose-only effect; inactive = flat fitted curve, though single readings scatter.

QUERY: Supply recorded Potency for CCCCNc1ncc2c(-c3ccc(F)cc3)nn(CC3CCC(N)CC3)c2n1 (stereo unspecified) here.
RESULT: 11.3 µM (active)

QUERY: Supply recorded Potency for COc1cc2c(NC3CCN(CC4CCCCC4)CC3)nc(N3CCCN(C(C)C)CC3)nc2cc1OCCCN1CCCCC1 here.
RESULT: 7.08 µM (active)

QUERY: Supply recorded Potency for Cc1ccc(C(=O)Nc2cccc(C(F)(F)F)c2)cc1-c1ccc2nc(NCCN3CCOCC3)ncc2c1 here.
RESULT: 14.1 µM (active)

QUERY: Supply recorded Potency for CN(C)CCNC(=O)NC[C@H]1CC[C@@H]2[C@H](O1)c1cc(C(F)(F)F)ccc1N[C@H]2c1ccccc1 here.
RESULT: 0.251 µM (active)

QUERY: Supply recorded Potency for CCCOc1ccc2nc(NC(=O)OC)[nH]c2c1 here.
RESULT: 0.251 µM (active)

QUERY: Supply recorded Potency for Cc1c(CN2CCN(S(C)(=O)=O)CC2)sc2c(N3CCOCC3)nc(-c3cnc(N)nc3)nc12 here.
RESULT: 0.891 µM (active)

QUERY: Supply recorded Potency for CN(C)C1CCN(C(=O)c2ccc(NC(=O)Nc3nc(N4CCOCC4)nc(N4CCOCC4)n3)cc2)CC1 here.
RESULT: 0.316 µM (active)

QUERY: Supply recorded Potency for C=C1/C(=C\C=C2/CCC[C@]3(C)[C@@H]([C@H](C)CCCC(C)(C)O)CC[C@@H]23)C[C@@H](O)C[C@@H]1O here.
RESULT: 28.2 µM (active)

QUERY: Supply recorded Potency for C/C=C1\NC(=O)[C@H]2CSSCC/C=C\[C@H](CC(=O)N[C@H](C(C)C)C(=O)N2)OC(=O)[C@H](C(C)C)NC1=O here.
RESULT: 0.0126 µM (active)

QUERY: Supply recorded Potency for Cn1cncc1C(N)(c1ccc(Cl)cc1)c1ccc2c(c1)c(-c1cccc(Cl)c1)cc(=O)n2C (stereo unspecified) here.
RESULT: 6.31 µM (active)

QUERY: Supply recorded Potency for COc1ccc2c(c1)c(C1=C(c3c[nH]c4ccccc34)C(=O)NC1=O)cn2CCCN(C)C here.
RESULT: 15.8 µM (active)

QUERY: Supply recorded Potency for COc1cc2c(Oc3ccc4[nH]c(C)cc4c3F)ncnc2cc1OCCCN1CCCC1 here.
RESULT: 25.1 µM (active)

QUERY: Supply recorded Potency for C=CC(=O)Nc1cccc(Nc2nc(Nc3ccc(N4CCN(C(C)=O)CC4)cc3OC)ncc2C(F)(F)F)c1 here.
RESULT: 2.24 µM (active)

QUERY: Supply recorded Potency for CO[C@@H]1[C@@H](OC)[C@H](C)[C@@](O)(CC(=O)O)O[C@H]1[C@H](C)[C@H]1O[C@@]2(CC[C@@](C)([C@H]3CC[C@@](C)([C@@H]4O[C@@H]([C@H]5O[C@](C)(O)[C@H](C)C[C@@H]5C)C[C@@H]4OC4C[C@H](OC)[C@@H](OC)[C@H](C)O4)O3)O2)C[C@H](O)[C@H]1C (stereo partly specified) here.
RESULT: 1.46 µM (active)

QUERY: Supply recorded Potency for C[C@@H](C(=O)Nc1ccc(Cl)cc1)C1CCC(c2ccnc3ccc(F)cc23)CC1 (stereo partly specified) here.
RESULT: 25.1 µM (active)

QUERY: Supply recorded Potency for COc1ccc(S(=O)(=O)Nc2cc(-c3csc(C#N)c3)ccc2C)cc1 here.
RESULT: 0.0631 µM (active)

QUERY: Supply recorded Potency for C=CCNC1=C2CC(C)CC(OC)C(O)C(C)/C=C(\C)C(OC(N)=O)C(OC)/C=C/C=C(\C)C(=O)NC(=CC1=O)C2=O (stereo unspecified) here.
RESULT: 3.16 µM (active)

QUERY: Supply recorded Potency for [O-][n+]1ccccc1SSc1cccc[n+]1[O-] here.
RESULT: 1.59 µM (active)

QUERY: Supply recorded Potency for C[C@H]1[C@H](O)O[C@@H]2O[C@@]3(C)CC[C@H]4[C@H](C)CC[C@@H]1[C@@]24OO3 here.
RESULT: 12.6 µM (active)

QUERY: Supply recorded Potency for C[C@@H](OC[C@@]1(c2ccccc2)CC[C@]2(CCC(=O)N2)CN1)c1cc(C(F)(F)F)cc(C(F)(F)F)c1 here.
RESULT: 25.1 µM (active)

QUERY: Supply recorded Potency for CC(C)(C)Cn1c(N)nc2ccc(-c3[nH]c(C(C)(C)C)nc3-c3ccc(F)cc3)nc21 here.
RESULT: 25.1 µM (active)

QUERY: Supply recorded Potency for Cn1cc(-c2cnn3c(N)c(Br)c([C@@H]4CCCNC4)nc23)cn1 here.
RESULT: 12.6 µM (active)

QUERY: Supply recorded Potency for Cc1cc(Nc2ncc3c(n2)N(C)C(=O)N(c2cc(NC(=O)c4cccc(C(F)(F)F)c4)ccc2C)C3)n(C)n1 here.
RESULT: 0.355 µM (active)

QUERY: Supply recorded Potency for Cn1cc(-c2ccc(S(=O)(=O)n3ccc(/C=C/C(=O)Nc4ccccc4N)c3)cc2)cn1 here.
RESULT: 0.794 µM (active)

QUERY: Supply recorded Potency for FC(F)(F)c1ccc(Nc2nc(-c3c(C(F)(F)F)nc4ccccn34)cs2)cc1 here.
RESULT: 0.282 µM (active)

QUERY: Supply recorded Potency for CCc1cc(-c2n[nH]c(C)c2-c2ccc3c(c2)OCCO3)c(O)cc1O here.
RESULT: 14.1 µM (active)

QUERY: Supply recorded Potency for CC(C)[C@H](CO)Nc1nc(Nc2cccc(Cl)c2)c2ncn(C(C)C)c2n1 here.
RESULT: 22.4 µM (active)

QUERY: Supply recorded Potency for [Cl][In]([Cl])[Cl] here.
RESULT: 35.5 µM (active)

QUERY: Supply recorded Potency for C[C@@H](Oc1ccc2[nH]nc(/C=C/c3cnn(CCO)c3)c2c1)c1c(Cl)cncc1Cl here.
RESULT: 3.98 µM (active)

QUERY: Supply recorded Potency for COC[C@H](NC(=O)c1cnc(C)s1)C(=O)N[C@@H](COC)C(=O)N[C@@H](Cc1ccccc1)C(=O)[C@@]1(C)CO1 here.
RESULT: 0.316 µM (active)

QUERY: Supply recorded Potency for C=CC(=O)Nc1cc2c(Nc3ccc(F)c(Cl)c3)ncnc2cc1OCCCN1CCOCC1 here.
RESULT: 3.55 µM (active)

QUERY: Supply recorded Potency for CC(C)C[C@H](NC(=O)[C@@H](NC(=O)c1cccc(-c2ccccc2)n1)[C@@H](C)O)B(O)O here.
RESULT: 0.285 µM (active)

QUERY: Supply recorded Potency for C=CCc1cccc(/C=N/NC(=O)CN2CCN(Cc3ccccc3)CC2)c1O here.
RESULT: 8.91 µM (active)

QUERY: Supply recorded Potency for Oc1c(Cl)cc(Cl)c2cccnc12 here.
RESULT: 3.55 µM (active)

QUERY: Supply recorded Potency for C=CC(=O)Nc1ccc2ncnc(Nc3cccc(Br)c3)c2c1 here.
RESULT: 1.26 µM (active)

QUERY: Supply recorded Potency for CCCC(C(=O)OCCN(CC)CC)(c1ccccc1)c1ccccc1 here.
RESULT: 20.6 µM (active)
